Biological target: UniProtKB P30968
Sequence (P30968 1-328): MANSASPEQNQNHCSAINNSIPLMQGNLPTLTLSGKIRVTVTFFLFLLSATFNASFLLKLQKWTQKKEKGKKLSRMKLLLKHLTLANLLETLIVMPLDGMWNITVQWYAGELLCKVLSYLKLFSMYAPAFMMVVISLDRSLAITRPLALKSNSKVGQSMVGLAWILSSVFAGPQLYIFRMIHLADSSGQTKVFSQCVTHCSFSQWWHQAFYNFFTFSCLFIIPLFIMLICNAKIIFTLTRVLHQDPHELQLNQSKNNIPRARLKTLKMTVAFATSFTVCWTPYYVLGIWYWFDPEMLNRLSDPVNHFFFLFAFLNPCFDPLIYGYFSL
pIC50: −log10 of the molar value.
I would appreciate it if you labelled entries 1 when pIC50 is 8 or higher, otherwise -1.

Use the examples below as a reference point.
molecule="CCCC(=O)NCCCC[C@H](NC(=O)[C@H]1Cc2ccccc2CN1C(=O)[C@@H]1CCC(=O)N1)C(=O)N[C@@H](Cc1c[nH]cn1)C(=O)N[C@@H](CC(=O)O)C(=O)N[C@@H](Cc1c[nH]c2ccccc12)C(=O)N[C@@H](CCCCNC(=O)CCCC(=O)N[C@H]1C[C@H](O[C@H]2C[C@](O)(C(C)=O)Cc3c(O)c4c(c(O)c32)C(=O)c2c(OC)cccc2C4=O)O[C@@H](C)[C@H]1O)C(=O)N1CCC[C@H]1C(=O)NCC(N)=O [compound 24]" group_label=-1
molecule="CCCC(=O)NCCCC[C@H](NC(=O)[C@H](Cc1c[nH]c2ccccc12)NC(=O)[C@H](Cc1c[nH]cn1)NC(=O)[C@@H]1CCC(=O)N1)C(=O)N[C@@H](Cc1c[nH]cn1)C(=O)N[C@@H](CC(=O)O)C(=O)N[C@@H](Cc1c[nH]c2ccccc12)C(=O)N[C@@H](CCCCN)C(=O)N1CCC[C@H]1C(=O)NCC(N)=O [Peptide I, GnRH-III-[^4Lys(Bu)]]" group_label=1

Now look at this one.
### Prompt Could you verify whether the entry CCCC(=O)NCCCC[C@H](NC(=O)[C@H]1Cc2ccccc2CN1C(=O)[C@@H]1CCC(=O)N1)C(=O)N[C@@H](Cc1c[nH]cn1)C(=O)N[C@@H](CC(=O)O)C(=O)N[C@@H](Cc1c[nH]c2ccccc12)C(=O)N[C@@H](CCCCNC(=O)CCCC(=O)N(C)CCN(C)C(=O)O[C@@H](C(=O)O[C@H]1C[C@@]2(O)[C@@H](OC(=O)c3ccccc3)[C@@H]3[C@]4(OC(C)=O)CO[C@@H]4C[C@H](O)[C@@]3(C)C(=O)[C@H](OC(C)=O)C(=C1C)C2(C)C)[C@@H](NC(=O)c1ccccc1)c1ccccc1)C(=O)N1CCC[C@H]1C(=O)NCC(N)=O [compound 26] shows pIC50 of no less than 8?
### Response -1
